// values below are reported log10(MIC)
# Tested on: Streptococcus pneumoniae
# RUN_DESCRIPTION: Minimum inhibitory concentration measured against Streptococcus pneumoniae
# Type: functional
Annotation: log10 of MIC, µg/mL basis.

Worked cases, answers included:
- SMILES_DATA: "CC(=O)NC[C@H]1CN(c2ccc(/C=C(/F)c3cccnc3)c(F)c2)C(=O)O1"
  log10(MIC): 0.60
- SMILES_DATA: "CC(=O)NC[C@H]1CN(c2ccc(/C=C(\\Br)c3ccc(C#N)cc3)c(F)c2)C(=O)O1"
  log10(MIC): -0.30
- SMILES_DATA: "CC(=O)NC[C@H]1CN(c2ccc(/C=C(\\Br)c3ccccc3C#N)c(F)c2)C(=O)O1"
  log10(MIC): 0.30
- SMILES_DATA: "CC(=O)NC[C@H]1CN(c2ccc(/C=C(\\Br)c3c(C)oc[n+]3C)c(F)c2)C(=O)O1"
  log10(MIC): 0.90
- SMILES_DATA: "CC(=O)NC[C@H]1CN(c2ccc(/C=C(\\Br)c3cccnc3)c(F)c2)C(=O)O1"
  log10(MIC): 0.00
- SMILES_DATA: "CC(=O)NC[C@H]1CN(c2ccc(/C=C(\\F)c3cccc(C#N)c3)c(F)c2)C(=O)O1"
  log10(MIC): 0.30
- SMILES_DATA: "CC(=O)NC[C@H]1CN(c2ccc(/C=C(\\Br)c3ccc(C(C)=O)s3)c(F)c2)C(=O)O1"
  log10(MIC): -0.30
- SMILES_DATA: "CC(=O)NC[C@H]1CN(c2ccc(/C=C(\\F)c3cccc(C=O)c3)c(F)c2)C(=O)O1"
  log10(MIC): 0.60

Can you look up the measured log10(MIC) of `CC(=O)NC[C@H]1CN(c2ccc(/C=C(\Br)c3ccco3)c(F)c2)C(=O)O1` for me?
-0.30

Endpoint output: log10(MIC) of `CC(=O)NC[C@H]1CN(c2ccc(/C=C\F)c(F)c2)C(=O)O1` . Value?
0.30

Need log10(MIC), item `CC(=O)NC[C@H]1CN(c2ccc(/C=C/c3cccnc3)c(F)c2)C(=O)O1`
1.20

Could you share which log10(MIC) value was measured for `CC(=O)NC[C@H]1CN(c2ccc(/C=C(\F)S(=O)(=O)c3ccccc3)c(F)c2)C(=O)O1` ?
0.90

Field request: log10(MIC) | item: `COC(=O)c1cccc(/C(Br)=C/c2ccc(N3C[C@H](CNC(C)=O)OC3=O)cc2F)c1`
1.51

Request the reported log10(MIC) associated with `CC(=O)NC[C@H]1CN(c2ccc(/C=C(\Br)c3cccc(N)c3)c(F)c2)C(=O)O1`
0.30

Can you look up the measured log10(MIC) of `CC(=O)NC[C@H]1CN(c2ccc(/C=C(\Br)c3ccccc3)c(F)c2)C(=O)O1` for me?
0.30
